Assign Swelling to each entry below.
Tested on: Rattus norvegicus
testName: Antiinflammatory activity on Carrageenan rat's paw edema(CPE) after peroral administration of 100 mg/kg dose with control swelling of 64.2%
Assay type: functional
conditionInfo: route oral
Answers are plain numbers, in %.

The cases that follow already have their Swelling on record.
1. O=C(Nc1ccccn1)c1c(O)c2cccnc2n(-c2ccccc2)c1=O	54.8
2. Cc1cccc(NC(=O)c2c(O)c3cccnc3n(-c3ccccc3)c2=O)c1	61.3
3. O=C(NCc1ccncc1)c1c(O)c2cccnc2n(-c2ccccc2)c1=O	54.3
4. O=C(Nc1ccccc1)c1c(O)c2cccnc2n(-c2ccccc2)c1=O	73.8
5. O=C(Nc1ccc(Cl)nc1)c1c(O)c2cccnc2n(-c2ccccc2)c1=O	66.8

Kindly give each listed record's Swelling.
1. CNC(=O)c1c(O)c2cccnc2n(-c2ccccc2)c1=O
2. CN(C)CCNC(=O)c1c(O)c2cccnc2n(-c2ccccc2)c1=O
3. CCCCNC(=O)c1c(O)c2cccnc2n(-c2ccccc2)c1=O
4. COc1ccccc1NC(=O)c1c(O)c2cccnc2n(-c2ccccc2)c1=O
5. O=C(Nc1ccncc1)c1c(O)c2cccnc2n(-c2ccccc2)c1=O
6. O=C(Nc1cccnc1)c1c(O)c2cccnc2n(-c2ccccc2)c1=O

a:
1: 50.7; 2: 52.4; 3: 51.1; 4: 70.7; 5: 48.6; 6: 44.4

q: Report Swelling from Rattus norvegicus testing of "O=C(Nc1cnccn1)c1c(O)c2cccnc2n(-c2ccccc2)c1=O"
a: 50.6

----------
Test system: Rattus norvegicus
testName: Antiinflammatory activity on Zymosan-induced rat's paw edema(ZPE) after peroral administration of 100 mg/kg dose with control swelling of 62.8%
Assay type: functional
conditionInfo: route oral
measureName: Swelling (%)
Numbers only, in %.

The cases that follow already have their Swelling on record.
1) COc1ccc(NC(=O)c2c(O)c3cccnc3n(-c3ccccc3)c2=O)cc1	62.6
2) Cc1ccc(NC(=O)c2c(O)c3cccnc3n(-c3ccccc3)c2=O)cc1	65
3) COc1cccc(NC(=O)c2c(O)c3cccnc3n(-c3ccccc3)c2=O)c1	59.2

Proceeding to the next molecule to report its Swelling.
q: Look up and report measured Swelling for this entry: "O=C(Nc1ccc([N+](=O)[O-])cc1)c1c(O)c2cccnc2n(-c2ccccc2)c1=O"
a: 67.6

----------
System: Rattus norvegicus
testName: Antiinflammatory activity on Zymosan-induced rat's paw edema(ZPE) after peroral administration of 100 mg/kg dose with control swelling of 72.9%
Format: functional
conditionInfo: route oral
measureName: Swelling (%)
Give bare numbers, in %.

1. CNC(=O)c1c(O)c2cccnc2n(-c2ccccc2)c1=O	65.9

Kindly give each listed record's Swelling.
1. Nc1ccc(NC(=O)c2c(O)c3cccnc3n(-c3ccccc3)c2=O)cc1
2. Cc1cnccc1NC(=O)c1c(O)c2cccnc2n(-c2ccccc2)c1=O
3. O=C(NCc1cccnc1)c1c(O)c2cccnc2n(-c2ccccc2)c1=O

a:
1. 76.9
2. 53.3
3. 54.3

----------
System: Rattus norvegicus
testName: Compound was tested for the inhibition of Zymosan-induced rat's paw edema(ZPE) after peroral administration of 30 mg/kg dose
Format: functional
conditionInfo: route oral
Assign inhibition in vivo at 30 mg/kg to each entry below.
Give bare numbers, in %.

The cases that follow already have their inhibition in vivo at 30 mg/kg on record.
1. O=C(Cn1c(=O)sc2ccc(Cl)cc21)N1CCN(CCO)CC1 [TIARAMIDE]	15.1
2. O=C(Nc1ccncc1)c1c(O)c2cccnc2n(-c2ccccc2)c1=O	28.8
3. O=C(Nc1cccnc1)c1c(O)c2cccnc2n(-c2ccccc2)c1=O	43.9

Proceeding to the next compound to report its inhibition in vivo at 30 mg/kg.
q: Look up and report measured inhibition in vivo at 30 mg/kg for this entry: CN1C(C(=O)Nc2ccccn2)=C(O)c2ccccc2S1(=O)=O [PIROXICAM]
a: 8.7
